Data credit: patent US10669258B2

Target: human APJ receptor (Homo sapiens, UniProt P35414)
Construct: expressed in transfected cells; host or cells: HEK293
Sequence (P35414 whole entry): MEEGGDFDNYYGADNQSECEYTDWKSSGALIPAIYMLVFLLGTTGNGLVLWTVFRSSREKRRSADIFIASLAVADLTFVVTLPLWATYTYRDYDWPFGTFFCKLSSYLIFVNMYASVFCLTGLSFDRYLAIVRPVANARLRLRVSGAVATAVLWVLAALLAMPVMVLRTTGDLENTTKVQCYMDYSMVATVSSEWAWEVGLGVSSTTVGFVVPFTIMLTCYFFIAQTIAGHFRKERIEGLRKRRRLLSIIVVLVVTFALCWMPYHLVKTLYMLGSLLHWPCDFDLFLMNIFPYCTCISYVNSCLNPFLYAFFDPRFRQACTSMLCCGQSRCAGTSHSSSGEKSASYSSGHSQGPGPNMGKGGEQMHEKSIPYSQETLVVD
Test: Intracellular cAMP accumulation assay (APJ hcAMP, HTRF)
Format: cell-based
Conditions: HEK293 cells stably expressing human APJ receptor; inhibition of forskolin-mediated cAMP production; Table 1; read-out: hAPJ cAMP EC50 Potency range
Task for the reader: assign each of the following molecules its reported EC50.

Examples with answers:
CCN(c1ccccc1)c1c(CC2CC2)nc(O)c(S(=O)(=O)c2ccc(-c3ccccc3C(=O)NC)cc2)c1O; 0.01 to 10 nM
CCCCc1nc(O)c(S(=O)(=O)c2ccc(-c3ccc(F)nc3C)cc2)c(O)c1N(CC)c1cccc(C#N)c1; 0.01 to 10 nM

Query: What EC50 appears in the records for this molecule with human APJ receptor (Homo sapiens, UniProt P35414)? `CCCCc1nc(O)c(S(=O)(=O)c2ccc(-c3cccnc3C)cc2)c(O)c1N(C)c1ccc(OC)cc1`
Response: 10 to 100 nM
